Each recorded value in this set is attributed to patent US10202593B2.

I'd be grateful if you could share measured Kcat (Hz) for these entries.
Tested on: LPETG (Abz-LPETGK(Dnp)-CONH2)
Assay: In vitro sortase kinetics HPLC assay, LPETG substrate
Format: biochemical
Conditions: Sub LPETG; 100 mM GGG
Numbers only, in Hz.

Record excerpt, results attached:
{"molecule": "eSrtA(4S-9): P94R, N98D, S102C, A104V, A118T, F122A, K134R, F144L, D160N, D165A, I182V, E189F, K190E, K196T (protein) QAKPQIPKDKSKVAGYIEIPDADIKEPVYPGPATREQLDRGVCFVEENESLDDQNISITGHTAIDRPNYQFTNLRAAKKGSMVYLKVGNETRKYKMTSIRNVKPTAVEVLDEQKGKDKQLTLVTCDDYNFETGVWETRKIFVATEVK", "Kcat (Hz)": 0.047}
{"molecule": "SrtA: wild-type Staphylococcus aureus sortase A (SEQ ID NO: 1) (protein, S. aureus) MKKWTNRLMTIAGVVLILVAAYLFAKPHIDNYLHDKDKDEKIEQYDKNVKEQASKDKKQQAKPQIPKDKSKVAGYIEIPDADIKEPVYPGPATPEQLNRGVSFAEENESLDDQNISIAGHTFIDRPNYQFTNLKAAKKGSMVYFKVGNETRKYKMTSIRDVKPTDVEVLDEQKGKDKQLTLITCDDYNEKTGVWEKRKIFVATEVK", "Kcat (Hz)": 1.5}
{"molecule": "eSrtA(2A-9): P94R, S102C, A104H, E105D, K138P, K152I, N160K, K162H, T164N, D165A, K173E, I182V, K190E, T196S (protein) QAKPQIPKDKSKVAGYIEIPDADIKEPVYPGPATREQLNRGVCFHDENESLDDQNISIAGHTFIDRPNYQFTNLKAAKPGSMVYFKVGNETRIYKMTSIRKVHPNAVEVLDEQEGKDKQLTLVTCDDYNEETGVWESRKIFVATEVK", "Kcat (Hz)": 0.0209}

# get_value(readout='Kcat (Hz)', item= eSrtA (protein) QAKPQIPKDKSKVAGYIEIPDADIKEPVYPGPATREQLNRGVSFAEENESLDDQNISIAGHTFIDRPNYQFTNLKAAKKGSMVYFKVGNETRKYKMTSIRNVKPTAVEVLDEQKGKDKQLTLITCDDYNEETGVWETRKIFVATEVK ) 5.4
